Test system: glycosylceramide synthesis in MCF-7-AdrR cells
PROCEDURE SUMMARY: Effect of PPMP on cellular glycosylceramide levels, [3H]serine 24 h
Assay type: cell-based
CONDITION SUMMARY: PPMP, [3H]serine 24 h, FIG. 16A; read-out: IC50 for inhibition of glycosylceramide formation
MEASURE: IC50

Challenge: IC50 of CCCCCCCCCCCCCCCC(=O)NC(CN1CCOCC1)C(O)c1ccccc1 (stereo not shown) on glycosylceramide synthesis in MCF-7-AdrR cells?
Response given: 900 nM

Provenance of the data: patent US5885786A
